Source listed as patent US20080152587A1.

target: T1, soluble recombinant human uPAR/His6 (R&D Systems, Cat. # 807-UK-100) (human, UniProt Q03405 23-303); assay: low resolution Biacore, mAb captured by goat anti-human, hu-uPAR 312 nM;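 further: surface plasmon resonance on a CM5 chip with goat anti-human antibody surface made by amine coupling, each mAb from supernatant captured per flow cell, kinetics fitted including mass transport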
T1 construct: range 1-303; Bought protein; also called soluble uPAR; hu-uPAR
T1 sequence (Q03405 other isoform, or with tags, fused parts or gaps limits assumed, form in doubt): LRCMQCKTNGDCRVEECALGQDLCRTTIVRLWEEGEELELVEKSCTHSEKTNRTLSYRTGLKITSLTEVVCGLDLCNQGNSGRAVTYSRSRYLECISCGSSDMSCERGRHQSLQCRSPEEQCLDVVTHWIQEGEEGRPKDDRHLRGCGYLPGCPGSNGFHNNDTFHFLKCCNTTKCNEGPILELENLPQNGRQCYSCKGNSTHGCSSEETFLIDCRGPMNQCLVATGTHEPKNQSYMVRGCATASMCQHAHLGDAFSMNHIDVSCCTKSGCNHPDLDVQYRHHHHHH
Field: kon. Provide a value for each of the binders that follow.
Numbers only, in M⁻¹ s⁻¹.

The following binders have reported results that may help.
BINDER	U	kon
anti-uPAR monoclonal antibody 1.4.2 (antibody, V domains shown) VH: EVQLVESGGGLVQPGGSLRLSCAASGFTFSSYDMHWVRQATGKGLEWVSAIGTAGDTYYPGSVKGRFTISRENAKNSLYLQMNSLRAGDTAVYYCAREGDYSNYFTMVRGVTYGMDVWGQGTTVTVSS VL: DIQLTQSPSSLCASVGDRITITCRASQGISKYLAWFQQKPGKAPKSLIYGASSLQSGVPAKFSGSGSGTDFTLTISSLQPEDFATYYCQQYNSYPLTFGGGTKVEIK	M⁻¹ s⁻¹	110000
anti-uPAR monoclonal antibody 1.113.2 (antibody, V domains shown) VH: QVQLVESGGGVVQPGRSLRLSCAASGFTFSSYGMHWVRQAPGKGLEWVAVIWYDGSNKYYADSVKGRFTISRDNSKNTLYLQMNSLRAEDTAVYYCARDLAALYYYYGMHVWGQGTTVTVSS VL: EIVMTQSPATLSVSPGERATLSCRASQSFSSNLAWYQQKPGQAPRLLIYGASTRATGIPARFSGSGSGTEFTLTISSLQSEDFAVYYCQQNNNWPRTFGQGTKVEIK	M⁻¹ s⁻¹	28000
anti-uPAR monoclonal antibody 1.41.1 (antibody, V domains shown) VH: QVQLVESGGGVVQPGRSLRLSCAAPGFTFSSYGMHWVRQAPGKGLEWVAVIWYDGSQKYYADSVKGRFTISRDNSKNTLYLQMNSLRAEDTAVYYCARGMTYYYYYGMDVWGQGTTVTVSS VL: EIVMTQSPAILSVSPGERATLSCRASQSVSSKLDWYQQKPGQAPRLLIYGASTRATGIPARFSGSGSGTEFTLTISSLQSEDFAVYYCQQYNNWPRTFGQGTKVEIK	M⁻¹ s⁻¹	33000
anti-uPAR monoclonal antibody 4.19.1 (antibody, V domains shown) VH: EVQLVESGGGLIQPGGSLRLSCAASGFSVSSNYMNWVRQAPGKGLEWVSVIYTGGSTYYADSVKGRFTISRDNSKNTLYLQMNSLRAEDTAVYYCARDTYLYGMDVWGQGTTVTVSS VL: EIVMTQSPATLSVSPGESATLSCRTSQSVSSNLAWYQQKPGQTPRLLIYGASARATGVPARFSGSGSGTEFTLTISSLQSEDFAVYYCQQYYNWPLTFGGGTKVEIK	M⁻¹ s⁻¹	120000

Could you now consider this next binder?
In: Consider the binder anti-uPAR monoclonal antibody 1.99.1 (antibody, V domains shown) VH: EVQLVESGGGLIQPGGSLRLSCAASGFTVRSNYMSWVRQAPGKGLEWISVIYTGGSTYYADSVKGRFSISRDNSKNTLYLQMNSLRAEDTAVYYCAREGAVAGFDYWGQGTLVTVSS VL: EIVMTQSPATLSVSPGERATLSCRASQSISSNLAWYQQKPGQAPRLLIYGASTRATGIPARFSGSGSGTEFTLTISSLQSEDFAVYYCQQYTNWPLTFGGGTKVEIK and give its measured kon.
Out: 120000
